# ASSAY_NOTES: Restrictive medium S. cerevisiae growth inhibition, OD615, pilot screen of yeast lifespan reduction project, restrictive growth control (AID 706);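 further: modified DeaD lifespan yeast strain shifted to restrictive glucose medium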
# MEASUREMENT_CONDITIONS: OD615, 48 h, at 10 µM, active compounds read high
ASSAY_ENDPOINT: growth inhibition (%)
One number for each entry, in %.

COMPOUND: Cc1sc2nc(SCC(=O)OC(C)C)n(C)c(=O)c2c1C
UNIT_ABBREV: %
growth inhibition: 31.4

COMPOUND: Cc1cc(C(=O)CN2CC(C)OC(C)C2)c(C)n1-c1ccccc1 (stereo not drawn)
UNIT_ABBREV: %
growth inhibition: -5.6

COMPOUND: Cc1ccc2nc(NC(=O)CCNS(=O)(=O)c3cccs3)sc2c1
UNIT_ABBREV: %
growth inhibition: -7.59

COMPOUND: COCCCNC(=O)c1ccccc1Oc1ccccc1
UNIT_ABBREV: %
growth inhibition: -2.05

COMPOUND: COC(=O)c1ccc(NC(=O)c2cccc(OC)c2)cc1
UNIT_ABBREV: %
growth inhibition: 7.93

COMPOUND: COCCN1C(=O)c2oc3ccccc3c(=O)c2C1c1cccc(O)c1 (stereo not drawn)
UNIT_ABBREV: %
growth inhibition: -8.97

COMPOUND: CC(C)CC(=O)Nc1ccc2oc(-c3cccnc3)nc2c1
UNIT_ABBREV: %
growth inhibition: 2.53

COMPOUND: Cc1ccc(C(c2sc3nc(C)nn3c2O)N2CCN(CCO)CC2)cc1 (stereo not drawn)
UNIT_ABBREV: %
growth inhibition: 7

Record growth inhibition for all entries; do not skip any.
1. CC1NC(=O)NC1CCCCC(=O)O (stereo not drawn)
2. CC(=O)Nc1ccc(S(=O)(=O)N2CCN(c3nc(NC4CCCC4)c4ccccc4n3)CC2)cc1

2.25
-1.39

// for each compound below, give its growth inhibition
1. CCOc1ccccc1N1C(=O)CC(Nc2ccc(N3CCOCC3)cc2)C1=O (stereo not drawn)
2. COc1ccccc1C(=O)Nc1ccc2oc(-c3ccc(F)cc3)nc2c1
3. Cc1cc(C)n(-c2nc3ccccc3c3nc(C)nn23)n1
4. CCN(CC)CC(=O)Nc1cc(C)c2c(=O)oc3ccccc3c2n1
5. COc1ccc(Cl)cc1NC(=O)c1cnc2sccn2c1=O

[7.53, 0.83, -2.51, -19.2, 9.97]

# batch size: 5; output growth inhibition per entry
1. CCc1nc(C)cn1S(=O)(=O)c1cc(C)c(OC)cc1C
2. CCOc1ccc(-c2nc(CSc3nncs3)cs2)cc1OC
3. Cn1c(=O)c2c(nc(N3CCCCCC3)n2CCSc2nc3ccccc3o2)n(C)c1=O
4. CCOC(=O)N1CCN(C(=O)CN(c2cc(C(F)(F)F)ccc2Cl)S(C)(=O)=O)CC1
5. O=C(CN1CCN(Cc2ccc(Cl)cc2)C1=O)NCCN1CCCC1

[0.98, 16.2, -18.4, 9.28, 9.72]

----------
# ASSAY_NOTES: growth suppression of PTEN-deleted HCT116, pilot screen, cell-based, HCT116 clonal line, CellTiter-Glo (AID 824);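 further: 0% = 20 µM Hyamine control and 100% = vehicle cell control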
# MEASUREMENT_CONDITIONS: 60 h, at 10 µM, active compounds read low
Results filed as inconclusive are left out.
I'd be grateful if you could share measured viability for these entries.
Give bare numbers, in %.

Here is how some molecules turned out for viability.
MOLECULE: CCOC(=O)N1CCC(NC(=O)CS(=O)(=O)Cc2nc(-c3ccc(C)cc3)oc2C)CC1
RESULT_VALUE: 81.3
--
MOLECULE: C=CCOC(=O)C1=C(C)NC(=O)NC1/C=C/c1ccccc1 (stereo unspecified)
RESULT_VALUE: 95
--
MOLECULE: CS(=O)(=O)NCCCc1ccccc1
RESULT_VALUE: 94.5
--
MOLECULE: CCCC1(C(=O)O)NC(c2cccc(OC)c2O)C2C(=O)N(c3ccccc3)C(=O)C21 (stereo unspecified)
RESULT_VALUE: 97.4
--
MOLECULE: CN(C)Cc1cc(C(C)(C)C)c(O)c(C(C)(C)C)c1
RESULT_VALUE: 101
--
MOLECULE: CCN(CC)C(=O)C1CCN(S(=O)(=O)c2ccc(C3CNC(=O)C3)cc2)CC1 (stereo unspecified)
RESULT_VALUE: 106
--
MOLECULE: Brc1ccc(-c2nnc3sc(CNCc4ccc5c(c4)OCO5)cn23)cc1
RESULT_VALUE: 99.8
--
MOLECULE: COCCN1C(=O)c2ccccc2C(C(=O)NCCN(C)C)C1c1ccc(F)cc1 (stereo unspecified)
RESULT_VALUE: 98.4

Below are some molecules; for each one, tell me its viability.
1. COC(=O)C1=C(C)NC(=O)CC1c1cc2c(cc1Br)OCO2 (stereo unspecified)
2. CCN(CC)CCCNc1nc2ccccc2[nH]1
3. COCC(=O)Nc1cc(=O)n(C)c(=O)n1C

94.7
98.3
94.4

----------
# ASSAY_NOTES: Restrictive medium S. cerevisiae growth inhibition, OD615, pilot screen of yeast lifespan reduction project, restrictive growth control (AID 706);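 further: modified DeaD lifespan yeast strain shifted to restrictive glucose medium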
# MEASUREMENT_CONDITIONS: OD615, 48 h, at 10 µM, active compounds read high
Exercise: for every item that follows, state its recorded growth inhibition.
Numbers only, in %.

See these solved cases before continuing.
SMILES_REPR: O=C(CN1C(=O)CSc2ncccc21)N1CCOCC1
UNIT_ABBREV: %
growth inhibition: -0.87
//
SMILES_REPR: Cc1ccc(-c2nnc3n2N=C(c2ccc(Br)cc2)CS3)cc1
UNIT_ABBREV: %
growth inhibition: 15.8
//
SMILES_REPR: COc1ccc(CN=CC2=C(O)CNC2=O)cc1OC
UNIT_ABBREV: %
growth inhibition: -8.51
//
SMILES_REPR: CCc1c(C)sc(NC(=O)c2cccs2)c1C(=O)OC(C)C
UNIT_ABBREV: %
growth inhibition: 5.3
//
SMILES_REPR: Cn1cnc2c1c(=O)n(Cc1ccccc1)c(=O)n2C
UNIT_ABBREV: %
growth inhibition: -14.2

Please find the next compound below.
Tell me the measured growth inhibition of CCOC(=O)C(C(=O)OCC)=C1OC(=O)c2ccccc21 , please.
-7.16

----------
Record form. Attribute: viability. Fill in for each entry.
# ASSAY_NOTES: growth suppression of beta-catenin knockout HCT116, pilot screen, human colon tumor cells (AID 823);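 further: 0% = wells killed by 20 µM Hyamine and 100% = untreated DMSO cell wells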
# MEASUREMENT_CONDITIONS: CellTiter-Glo, 60 h, at 10 µM, active compounds read low
Results filed as inconclusive are left out.
Answers are plain numbers, in %.

The cases that follow already have their viability on record.
COMPOUND: CC1(C)C(=O)OC(C(=O)c2ccccc2)C(C)(C)C1=O (stereo unspecified)
UNIT_ABBREV: %
viability: 105
//
COMPOUND: Cn1c(=O)c2c(nc(CN3CCOCC3)n2CCc2ccccc2)n(C)c1=O
UNIT_ABBREV: %
viability: 95
//
COMPOUND: O=C(CN1CC(c2ccccc2)CC1=O)Nc1ccc2c(c1)OCO2 (stereo unspecified)
UNIT_ABBREV: %
viability: 98
//
COMPOUND: CC1CCCCN1CCCNC(=O)C1CCN(c2nc3ccccc3o2)CC1 (stereo unspecified)
UNIT_ABBREV: %
viability: 99.9
//
COMPOUND: COc1ccc(C(=O)N2CCN(c3ccc(C)cc3C)CC2)cc1OC
UNIT_ABBREV: %
viability: 72.9

// switching to the query compound
Look up viability: CN(Cc1ccccc1)C(=O)CCC(=O)N(C)Cc1ccccc1
103

----------
# ASSAY_NOTES: OD615 S. cerevisiae growth inhibition, permissive medium, pilot counter-assay, permissive growth control for S. cerevisiae lifespan shortening project (AID 705)
# MEASUREMENT_CONDITIONS: OD615, 24 h, at 10 µM, active compounds read high
ASSAY_ENDPOINT: growth inhibition (%)
Numbers only, in %.

Record excerpt, results attached:
MOLECULE: CCOC(=O)Cn1c(C)nc2ccccc21
UNIT_ABBREV: %
growth inhibition: -14

MOLECULE: O=C1C(C=NCc2cccnc2)=C(O)c2ccccc21
UNIT_ABBREV: %
growth inhibition: -6.25

MOLECULE: COc1ccc(N(CC(=O)Nc2ccc3c(c2)OCO3)S(C)(=O)=O)c(OC)c1
UNIT_ABBREV: %
growth inhibition: -12.6

MOLECULE: Cc1ccc(NC(=O)C2CCCN2S(=O)(=O)c2ccc3c(c2)CCC(=O)N3)cc1Cl (stereo unspecified)
UNIT_ABBREV: %
growth inhibition: -9.43

MOLECULE: C=CCn1c(CSc2nc3ccccc3s2)nnc1SCC(=O)NCc1ccco1
UNIT_ABBREV: %
growth inhibition: 1.06

Please give growth inhibition, item by item, for the list that follows.
1. O=C(CSc1nnc(Cn2c(=O)sc3ccccc32)n1-c1ccccc1)N1CCCCCC1
2. CS(=O)(=O)Nc1cccc2cccnc12

1. -11.3
2. 5.63

Dear colleague, could you send me growth inhibition for each of the items below? Thanks.
1. COc1ccccc1C(=O)N1CCN(c2cccc(Cl)c2)CC1
2. Cc1sc2nc(NCCO)[nH]c(=O)c2c1C
3. O=C(NCc1ccco1)c1cnccn1
4. Cc1cccc(N2CCN(C(=O)C3CCCN(S(=O)(=O)c4cccc5cccnc45)C3)CC2)c1C (stereo unspecified)

-9.06
-15.5
3.99
-6.73
